# Method Summary: Plasma concentration in rat at 10 mg/kg, po after 0.5 hrs
# Format: ADME, organism-based
# Parameters: dose 10 mg/kg, route oral

>  <Smiles Notation>
NC(=O)c1ccc(S(=O)(=O)c2ccc(/C=C/c3ccc(F)cc3F)cc2)cc1

>  <concentration at 0.5 h [nM]>
300

$$$$
>  <Smiles Notation>
NC(=O)c1ccccc1S(=O)(=O)c1ccc(/C=C/c2ccc(F)cc2F)cc1

>  <concentration at 0.5 h [nM]>
2730

$$$$
>  <Smiles Notation>
NC(=O)c1cccc(S(=O)(=O)c2ccc(/C=C/c3ccc(F)cc3F)cc2)c1

>  <concentration at 0.5 h [nM]>
40

$$$$
